assay: Toxicity in Kunming mouse assessed as effect on heart colour at 100 to 200 mg/kg, iv once daily for 5 days; assay type: organism-based; conditions: in vivo, 120 h, dose 100-200 mg/kg, time 5 day
MEASUREMENT LABEL: Activity

[
  {
    "MOLECULE": "CC(=O)N[C@H]1[C@H](OCCCCC(=O)NCCOCCOCCOCCOCCn2cc(COP(=O)(CO[C@H](C)Cn3cnc4c(N)ncnc43)OCOC(=O)C(C)(C)C)nn2)O[C@H](CO)[C@H](O)[C@H]1O (some centres undefined)",
    "MEASURED": "Non-toxic"
  },
  {
    "MOLECULE": "CC(=O)N[C@H]1[C@H](OCCCCC(=O)NCCCNC(=O)CCOCC(COCCC(=O)NCCCNC(=O)CCCCO[C@@H]2O[C@H](CO)[C@H](O)[C@@H](O)[C@H]2NC(C)=O)(COCCC(=O)NCCCNC(=O)CCCCO[C@@H]2O[C@H](CO)[C@H](O)[C@@H](O)[C@H]2NC(C)=O)NC(=O)CCC(=O)NCCOCCOCCOCCOCCn2cc(COP(=O)(COCCn3cnc4c(N)ncnc43)OCOC(=O)C(C)(C)C)nn2)O[C@H](CO)[C@H](O)[C@H]1O (some centres undefined)",
    "MEASURED": "Non-toxic"
  },
  {
    "MOLECULE": "CC(=O)N[C@H]1[C@H](OCCCCC(=O)NCCCNC(=O)CCOCC(COCCC(=O)NCCCNC(=O)CCCCO[C@@H]2O[C@H](CO)[C@H](O)[C@@H](O)[C@H]2NC(C)=O)(COCCC(=O)NCCCNC(=O)CCCCO[C@@H]2O[C@H](CO)[C@H](O)[C@@H](O)[C@H]2NC(C)=O)NC(=O)CCC(=O)NCCOCCOCCOCCOCCn2cc(COP(=O)(CO[C@H](C)Cn3cnc4c(N)ncnc43)OCOC(=O)OC(C)C)nn2)O[C@H](CO)[C@H](O)[C@H]1O (some centres undefined)",
    "MEASURED": "Non-toxic"
  },
  {
    "MOLECULE": "CC(=O)N[C@H]1[C@H](OCCCCC(=O)NCCOCCOCCOCCOCCn2cc(COP(=O)(COCCn3cnc4c(N)ncnc43)OCOC(=O)C(C)(C)C)nn2)O[C@H](CO)[C@H](O)[C@H]1O (some centres undefined)",
    "MEASURED": "Non-toxic"
  }
]

###

assay: Cmax in Sprague-Dawley rat at 50 mg/kg, po by LC-MS analysis; assay type: ADME, organism-based; conditions: in vivo
MEASUREMENT LABEL: Cmax (ng/mL)
Write the value in ng/mL as a bare number.

[
  {
    "COMPOUND": "CC(=O)N[C@H]1[C@H](OCCCCC(=O)NCCOCCOCCOCCOCCn2cc(COP(=O)(COCCn3cnc4c(N)ncnc43)OCOC(=O)C(C)(C)C)nn2)O[C@H](CO)[C@H](O)[C@H]1O (some centres not stated)",
    "VALUE UNIT": "ng/mL",
    "Cmax": 1290
  }
]

Moving on to another compound below.
Prompt: Give Cmax for the following compound: CC(=O)N[C@H]1[C@H](OCCCCC(=O)NCCOCCOCCOCCOCCn2cc(COP(=O)(CO[C@H](C)Cn3cnc4c(N)ncnc43)OCOC(=O)C(C)(C)C)nn2)O[C@H](CO)[C@H](O)[C@H]1O (some centres not stated)
Response: 1500
